target: bovine serum albumin (BSA) (Bos taurus, UniProt P02769); construct: BSA, molecular weight of 66 kDa, 583 residues; purchased Sigma Aldrich Chemicals (Taufkirchen, Germany); assay: Steady-state fluorescence titration of ANS with BSA at ambient pressure (binding isotherms); details: Binding constant Kb1, 250 mM MgCl2, 15 °C, 1 bar, 10 mM Tris-HCl pH 7.4
Sequence (P02769 25-607): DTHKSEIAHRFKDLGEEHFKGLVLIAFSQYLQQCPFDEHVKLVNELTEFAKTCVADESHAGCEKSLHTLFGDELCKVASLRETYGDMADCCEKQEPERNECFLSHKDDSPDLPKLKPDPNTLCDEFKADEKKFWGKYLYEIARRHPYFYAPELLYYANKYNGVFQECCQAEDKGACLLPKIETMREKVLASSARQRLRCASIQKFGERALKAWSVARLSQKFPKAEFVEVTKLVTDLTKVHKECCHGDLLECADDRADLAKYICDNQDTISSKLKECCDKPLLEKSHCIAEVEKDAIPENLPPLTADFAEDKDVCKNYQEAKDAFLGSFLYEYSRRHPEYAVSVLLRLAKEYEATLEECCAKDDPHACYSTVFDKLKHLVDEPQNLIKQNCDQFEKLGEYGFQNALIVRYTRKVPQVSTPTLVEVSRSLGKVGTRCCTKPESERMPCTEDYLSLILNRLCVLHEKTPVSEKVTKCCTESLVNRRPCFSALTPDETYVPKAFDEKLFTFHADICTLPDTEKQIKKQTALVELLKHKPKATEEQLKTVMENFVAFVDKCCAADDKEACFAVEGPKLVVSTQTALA
readout_name: Kd (nM)

compound | result_value
O=S(=O)(O)c1cccc2cccc(Nc3ccccc3)c12 [ANS, 8-anilinonaphthalene-1-sulfonic acid] | 2780

---

Target: bovine serum albumin (BSA) (Bos taurus, UniProt P02769)
Construct: BSA, molecular weight of 66 kDa, 583 residues; purchased Sigma Aldrich Chemicals (Taufkirchen, Germany)
Experiment: High hydrostatic pressure fluorescence titration of ANS with BSA (1-2000 bar)
Assay type: binding
Settings: Binding constant Kb1, 250 mM Mg(ClO4)2, 15 °C, 1 bar
Procedure: The extent of complex formation between ANS and BSA was followed by means of steady-state fluorescence spectroscopy using a K2 fluorometer from ISS, Inc. (Champaign, IL, USA). […] In the next step, we explored the impact of high hydrostatic pressure (HHP) on the binding of ANS to BSA in the presence of the three salts and in the temperature range between 5 and 25 °C. To this end, we performed the same titration experiments following the complex formation by means of HHP fluorescence spectroscopy. […]

line_notation | unit_tag | Kd
O=S(=O)(O)c1cccc2cccc(Nc3ccccc3)c12 | µM | 6.67
